assayed system: Human S6K1 (24-421) T412E protein (Homo sapiens, UniProt P23443, T412E)
Construct: Human S6K1 (24-421) T412E protein
Sequence (P23443 24-421 T412E): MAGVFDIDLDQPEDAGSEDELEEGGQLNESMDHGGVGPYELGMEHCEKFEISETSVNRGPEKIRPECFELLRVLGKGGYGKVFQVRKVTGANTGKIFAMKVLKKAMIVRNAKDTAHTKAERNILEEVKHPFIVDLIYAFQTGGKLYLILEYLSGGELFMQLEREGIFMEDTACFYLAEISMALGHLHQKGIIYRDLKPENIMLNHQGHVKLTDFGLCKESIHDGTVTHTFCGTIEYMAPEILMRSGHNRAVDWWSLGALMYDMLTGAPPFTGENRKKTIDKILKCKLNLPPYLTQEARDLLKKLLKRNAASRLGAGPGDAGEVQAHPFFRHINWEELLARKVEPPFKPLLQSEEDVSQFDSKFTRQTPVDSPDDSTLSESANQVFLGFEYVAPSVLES
procedure details: Determination of the IC50 for S6K1 (HTRF substrate phosphorylation test)
cond: S6K1 activated by PDK1, ATP 30 μM

compound	assayed system	IC50
S=C(Nc1ccc2[nH]ncc2c1)N[C@@H](c1ccc(Cl)c(Cl)c1)[C@@H]1CCCCN1	Human S6K1 (24-421) T412E protein (Homo sapiens, UniProt P23443, T412E)	100 to 500 nM
O=C(Nc1ccc2[nH]ncc2c1)O[C@@H](c1ccc(Cl)c(Cl)c1)[C@@H]1CCCCN1 [Ex 38b]	Human S6K1 (24-421) T412E protein (Homo sapiens, UniProt P23443, T412E)	100 to 500 nM
O=C(Nc1ccc2[nH]ncc2c1)O[C@@H](c1cccc(C(=O)NC2CCCCC2)c1)[C@@H]1CCCCN1	Human S6K1 (24-421) T412E protein (Homo sapiens, UniProt P23443, T412E)	100 to 500 nM
O=C(Nc1ccc2[nH]ncc2c1)O[C@H](c1cc(F)cc(Cl)c1)[C@@H]1CCCCN1	Human S6K1 (24-421) T412E protein (Homo sapiens, UniProt P23443, T412E)	500 to 2000 nM
O=C(Nc1ccc2[nH]ncc2c1)NC(c1cc(F)cc(Cl)c1)C1CCCCN1 (stereo not drawn)	Human S6K1 (24-421) T412E protein (Homo sapiens, UniProt P23443, T412E)	100 to 500 nM
CN1CCCCC1C(NC(=O)Nc1ccc2[nH]nc(C#Cc3ccc(F)cc3)c2c1)c1ccccc1 (stereo not drawn)	Human S6K1 (24-421) T412E protein (Homo sapiens, UniProt P23443, T412E)	100 to 500 nM
O=C(Nc1ccc2[nH]ncc2c1)N[C@H](c1ccccc1)[C@H]1CCCCN1	Human S6K1 (24-421) T412E protein (Homo sapiens, UniProt P23443, T412E)	500 to 2000 nM
O=C(Nc1ccc2[nH]ncc2c1)N[C@@H](c1ccc(Cl)c(Cl)c1)[C@@H]1CCCCN1	Human S6K1 (24-421) T412E protein (Homo sapiens, UniProt P23443, T412E)	100 to 500 nM
O=C(Nc1ccc2[nH]ncc2c1)N[C@@H](c1cc(F)cc(Cl)c1)[C@@H]1CCCCN1	Human S6K1 (24-421) T412E protein (Homo sapiens, UniProt P23443, T412E)	100 to 500 nM
CN1CCCCC1C(NC(=O)Nc1ccc2[nH]nc(-c3ccncc3)c2c1)c1ccccc1 (stereo not drawn)	Human S6K1 (24-421) T412E protein (Homo sapiens, UniProt P23443, T412E)	500 to 2000 nM
CN1CCCCC1C(NC(=O)Nc1cc(F)c2[nH]ncc2c1)c1ccccc1 (stereo not drawn)	Human S6K1 (24-421) T412E protein (Homo sapiens, UniProt P23443, T412E)	500 to 2000 nM
CN1CCCCC1C(OC(=O)Nc1ccc2[nH]ncc2c1)c1cc(F)cc(Cl)c1 (stereo not drawn)	Human S6K1 (24-421) T412E protein (Homo sapiens, UniProt P23443, T412E)	500 to 2000 nM
Nc1n[nH]c2ccc(NC(=O)N[C@@H](c3ccc(Cl)c(Cl)c3)[C@@H]3CCCCN3)cc12	Human S6K1 (24-421) T412E protein (Homo sapiens, UniProt P23443, T412E)	500 to 2000 nM
CN1CCCCC1C(NC(=O)Nc1ccc2[nH]ncc2c1)c1cc(F)cc(Cl)c1 (stereo not drawn)	Human S6K1 (24-421) T412E protein (Homo sapiens, UniProt P23443, T412E)	500 to 2000 nM
O=C(Nc1ccc2[nH]ncc2c1)OC(c1cc(Cl)cc(Cl)c1)C1CCCCN1 (stereo not drawn)	Human S6K1 (24-421) T412E protein (Homo sapiens, UniProt P23443, T412E)	500 to 2000 nM
O=C(Nc1ccc2[nH]ncc2c1)N[C@H](c1ccc(Cl)c(Cl)c1)[C@H]1CCCCN1	Human S6K1 (24-421) T412E protein (Homo sapiens, UniProt P23443, T412E)	100 to 500 nM
CN1CCCCC1C(NC(=O)Nc1ccc2[nH]nc(C#Cc3cccnc3)c2c1)c1ccccc1 (stereo not drawn)	Human S6K1 (24-421) T412E protein (Homo sapiens, UniProt P23443, T412E)	100 to 500 nM
CN1CCCCC1C(NC(=O)Nc1ccc2[nH]nc(C#Cc3ccccc3)c2c1)c1ccccc1 (stereo not drawn)	Human S6K1 (24-421) T412E protein (Homo sapiens, UniProt P23443, T412E)	500 to 2000 nM
O=C(Nc1ccc2[nH]ncc2c1)O[C@H](c1ccc(Cl)c(Cl)c1)[C@@H]1CCCCN1 [Ex 38c]	Human S6K1 (24-421) T412E protein (Homo sapiens, UniProt P23443, T412E)	100 to 500 nM
O=C(Nc1ccc2[nH]ncc2c1)N[C@@H](c1ccccc1)[C@@H]1CCCCN1	Human S6K1 (24-421) T412E protein (Homo sapiens, UniProt P23443, T412E)	500 to 2000 nM
O=C(Nc1ccc2[nH]ncc2c1)O[C@@H](c1cccc(Br)c1)[C@@H]1CCCCN1	Human S6K1 (24-421) T412E protein (Homo sapiens, UniProt P23443, T412E)	100 to 500 nM
O=C(Nc1ccc2[nH]ncc2c1)O[C@@H](c1cc(F)cc(Cl)c1)[C@@H]1CCCCN1	Human S6K1 (24-421) T412E protein (Homo sapiens, UniProt P23443, T412E)	100 to 500 nM
O=C(Nc1ccc2[nH]ncc2c1)O[C@H](c1ccc(Cl)c(Cl)c1)[C@H]1CCCCN1	Human S6K1 (24-421) T412E protein (Homo sapiens, UniProt P23443, T412E)	100 to 500 nM
Cc1n[nH]c2ccc(NC(=O)NC(c3ccccc3)C3CCCCN3C)cc12 (stereo not drawn)	Human S6K1 (24-421) T412E protein (Homo sapiens, UniProt P23443, T412E)	500 to 2000 nM
